- assay.system: Luciferin 4-monooxygenase (Photinus pyralis) (UniProt P08659)
- Sequence (P08659 whole entry, looked up): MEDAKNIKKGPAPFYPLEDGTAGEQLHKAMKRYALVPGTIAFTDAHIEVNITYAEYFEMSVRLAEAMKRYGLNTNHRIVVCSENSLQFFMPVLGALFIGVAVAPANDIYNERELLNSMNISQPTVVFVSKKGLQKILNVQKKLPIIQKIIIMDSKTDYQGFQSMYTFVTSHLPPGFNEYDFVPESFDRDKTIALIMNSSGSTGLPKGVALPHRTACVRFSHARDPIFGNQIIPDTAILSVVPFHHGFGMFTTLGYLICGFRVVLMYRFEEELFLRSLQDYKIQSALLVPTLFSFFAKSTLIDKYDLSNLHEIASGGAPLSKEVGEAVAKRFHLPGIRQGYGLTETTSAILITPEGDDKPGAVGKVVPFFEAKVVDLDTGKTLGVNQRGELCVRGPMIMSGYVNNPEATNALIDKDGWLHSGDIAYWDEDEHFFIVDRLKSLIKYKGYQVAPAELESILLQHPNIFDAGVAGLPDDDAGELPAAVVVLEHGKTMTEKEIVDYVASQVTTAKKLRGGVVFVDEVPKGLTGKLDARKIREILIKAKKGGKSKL
- assay.notes: firefly luciferase enzyme inhibitors, primary screen, biochemical, luminescence, purified enzyme, 2006 set (AID 1141);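 note: cell-free assay with purified firefly luciferase at 100 ng per well in PBS; test concentration not given here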
- measurement.setup: SteadyGlo luminescence, 30 min, called active from +8 up or from −8 down
Active and inactive are the calls of the source.
Response enum: true (1) = active, false (0) = inactive

Which outcome was assigned to [N-]=[N+]=Nc1ccccc1[C@@H]1OC(c2ccc(OCCCO)cc2)=N[C@]1(Cc1ccccc1)C(N)=O in this test? true (1)

How about this compound: CC(C)CNC(=O)[C@@H]1c2ccccc2C(=O)N(C2Cc3ccccc3C2)[C@H]1c1ccc(CO)cc1 false (0)

How about this compound: COCCOC(=O)N1C(=O)[C@@]2(c3cc(C#Cc4ccc(OC)cc4)ccc31)[C@H](C(=O)Nc1nc3ccccc3s1)[C@H]1C(=O)O[C@H](c3ccccc3)[C@H](c3ccccc3)N1[C@@H]2c1ccccc1OCCO false (0)

How about this compound: CN(C)CCCNC(=O)[C@@H]1c2ccccc2C(=O)N(C2Cc3ccccc3C2)[C@H]1c1ccc(CO)cc1 false (0)

How about this compound: CCN(CC)c1ccc(N2CC=CC34O[C@@H]5C=CCOC(=O)[C@@H]5[C@H]3C(=O)N(CCCO)[C@@H]4C2=O)cc1 (some centres not stated) false (0)

How about this compound: O=C1C2C=CC(C(O)c3ccc([N+](=O)[O-])cc3)N(Nc3ccccc3)C2C(=O)N1c1ccccc1 (configuration not stated) false (0)

Now examine the next entry.
Which outcome was assigned to C#CCN([C@H](/C=C/C1CC1)[C@@H](O)Cc1ccccc1)[C@@H](Cc1ccccc1)C(=O)OC in this test? false (0)

Value source: PubChem BioAssay
